Every entry's value here was drawn from patent US20190322748A1.

Target: T1, human PD1-ECD (human, UniProt Q15116 25-170)
T1 construct: SPR analyte; also called hu PD1-ECD
Assay: SPR; row head 'Affinity KD 37°C [nM] *)', second of two values (equals the 25 C value of Table 9)
property: pKd
Please keep in mind that pKd is minus log10 of the molar concentration; only the number is needed.

stdin: May I ask what pKd has been recorded for PD1-0103-0314 (antibody, human IgG1, V domains shown, Humanized) VH: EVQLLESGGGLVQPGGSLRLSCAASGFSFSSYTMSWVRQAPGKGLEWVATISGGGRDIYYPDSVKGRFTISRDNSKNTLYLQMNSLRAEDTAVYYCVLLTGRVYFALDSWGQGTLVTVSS VL: EIVLTQSPATLSLSPGERATLSCRASESVDTSDNSFIHWYQQKPGQSPRLLIYRSSTLESGIPARFSGSGSGTDFTLTISSLEPEDFAVYYCQQNYDVPWTFGQGTKVEIK ?
stdout: 8.82
